Please find below Ki measurements for Aurora kinase A (Homo sapiens, UniProt O14965), combined from several publications.

• CCc1ccccc1-c1nc(Nc2cc(C)[nH]n2)c2ccccc2n1 = 100 to 1000 nM
• CCn1cc(Nc2ncc([N+](=O)[O-])c(N[C@H]3[C@@H](C(N)=O)[C@@H]4C=C[C@H]3C4)n2)cn1 = < 100 nM
• COc1ccccc1Nc1cc(-c2c(N)nn3cc(-c4ccncc4)cnc23)ncn1 = < 500 nM

--- query ---
Record CCC(=O)Nc1ccc(Sc2nc(Nc3cc(C)n[nH]3)cc(N3CC[C@@H](NC)C3)n2)cc1 ; system Aurora kinase A (Homo sapiens, UniProt O14965); Ki = ≤ 10 nM

###

Please find below Ki measurements for Aurora kinase A (Homo sapiens, UniProt O14965), combined from several publications.

- FC(F)(F)c1ccccc1-c1nc(Nc2cc(C3CC3)[nH]n2)c2ccccc2n1: < 0.1 µM
- OC[C@H]1CCCN(c2cc(-n3cnc(Nc4ccccc4)n3)ccn2)C1: 0.1 to 1 µM
- CCC(=O)Nc1ccc(Sc2nc(Nc3cc(C)n[nH]3)cc(N3CCC(C#N)CC3)n2)cc1: ≤ 0.01 µM

CCn1cc(Nc2ncc(C(F)(F)F)c(N[C@@H]3[C@H]4CC[C@H](C4)[C@@H]3C(N)=O)n2)cn1 yielded Ki of < 0.1 µM

CC(C)(C)OC(=O)NCc1ccc(-c2cnc3c(-c4ccccn4)c(N)nn3c2)cc1 yielded Ki of < 0.5 µM

CCc1cc(Nc2cc(C)[nH]n2)nc(Nc2ccc(Cl)cc2)n1 yielded Ki of < 0.1 µM

CC(=O)N1[C@H](C)CN(c2cc(-n3cnc(Nc4ccccc4)n3)ccn2)C[C@@H]1C yielded Ki of < 0.1 µM

COc1cccc(Nc2nc(Nc3cc(C4CC4)[nH]n3)c3ccccc3n2)c1 yielded Ki of < 0.1 µM

CC(C)OC(=O)Cn1cc(Nc2ncc(Br)c(N[C@@H]3[C@H](C(N)=O)[C@H]4C=C[C@@H]3C4)n2)cn1.CC(C)OC(=O)Cn1cc(Nc2ncc(Br)c(N[C@H]3[C@@H](C(N)=O)[C@@H]4C=C[C@H]3C4)n2)cn1 (mixture of isomers) yielded Ki of < 0.1 µM

CC(=O)Nc1ccc(Sc2nc(Nc3cc(C)[nH]n3)c3ccc(NO)cc3n2)cc1 yielded Ki of < 0.1 µM

CCn1cc(Nc2ncc(C(F)(F)F)c(N[C@H]3[C@@H](C(N)=O)[C@@H]4C=C[C@H]3C4)n2)cn1 yielded Ki of < 0.1 µM

Nc1nn2cc(-c3ccc(CO)cc3)cnc2c1-c1ccccn1 yielded Ki of < 0.5 µM

CN(CCCN)C(=O)c1ccc(-c2cnc3c(-c4ccccn4)c(N)nn3c2)nc1 yielded Ki of 0.5 to 5 µM

Cc1cc(Nc2cc(-c3ccccc3)[nH]n2)nc(Nc2ccc(Cl)cc2)n1 yielded Ki of 0.1 to 1 µM

Cn1cc(Nc2ncc(C(F)(F)F)c(N[C@@H]3CCC[C@@H]3C(N)=O)n2)cn1.Cn1cc(Nc2ncc(C(F)(F)F)c(N[C@H]3CCC[C@H]3C(N)=O)n2)cn1 (mixture of isomers) yielded Ki of 0.1 to 1 µM

Nc1nn2cc(-c3ccc(CN4CCC(N)CC4)cc3)cnc2c1-c1ccccn1 yielded Ki of < 0.5 µM

Cc1cc(Nc2cncc(Sc3ccc(NC(=O)C4CC4)cc3)n2)[nH]n1 yielded Ki of < 0.1 µM

CC(=O)Nc1ccc(Nc2nc(Nc3cc(C4CC4)[nH]n3)c3ccccc3n2)cc1C yielded Ki of < 0.1 µM

CC(=O)Nc1ccc(Sc2nc(Nc3cc(C)[nH]n3)c3ccc(O)cc3n2)cc1 yielded Ki of < 0.1 µM

Cc1cc(Nc2nc(Nc3cccc(Cl)c3)nc3ccccc23)n[nH]1 yielded Ki of < 0.1 µM

Fc1cccc(-c2cnoc2-c2c[nH]c3ncc(-c4ncccn4)cc23)c1F yielded Ki of 0.2 to 1 µM

CC(C)(C)OC(=O)NCCCc1cc(Nc2nc(-c3ccccc3)nc3ccccc23)[nH]n1 yielded Ki of < 0.1 µM

Nc1nn2cc(N3CCOCC3)cnc2c1-c1ccccn1 yielded Ki of 0.5 to 5 µM

FC(F)(F)c1ccccc1-c1cc(Nc2nc[nH]n2)c2ccccc2n1 yielded Ki of 1 to 20 µM

COc1cc(C2=NNC(=O)C2=NNc2ccc(Cl)cc2)cc(OC)c1OC yielded Ki of < 0.1 µM
